Assay: plasmodial surface anion channel blockers, osmotic lysis – cell-based, P. falciparum Indochina, OD700, 18 h, primary screen (AID 1157)
Settings: P. falciparum Indochina infected erythrocytes, osmotic lysis OD700, 18 h; higher = more signal, called active from +8 up or from −8 down
Please mark yes if the recorded z-score is equal to or greater than 0.5, and no if it falls below.

# compound, label-value
rows = [
    ("C=CCC(OC(C)=O)[C@@H]1[C@@H](N(Cc2cccc3ccccc23)C(=O)c2ccc(-c3ccccc3)cc2)c2cc(OCCCO)ccc2N1C(=O)Cc1ccc2ccccc2c1 (stereo partly specified)", "no"),
    ("O=C1O[C@H](c2ccccc2)[C@H](c2ccccc2)N2[C@H]1[C@@H](C(=O)N1CCN(c3ncccn3)CC1)[C@]1(C(=O)Nc3ccc(C#CCCO)cc31)[C@H]2c1ccc(O)cc1", "no"),
    ("COCCOC(=O)N1C(=O)[C@@]2(c3cc(C#CCC(C(=O)OC)C(=O)OC)ccc31)[C@H](C(N)=O)[C@H]1C(=O)O[C@H](c3ccccc3)[C@H](c3ccccc3)N1[C@@H]2c1ccc(O)cc1", "yes"),
    ("O=C1N(Cc2ccccc2)c2ccccc2C[C@@]12COC(c1ccc(OCCCO)cc1)=N2", "yes"),
    ("CO[C@H]1O[C@H](CO)[C@@H](OC(=O)Nc2ccccc2)[C@H](OC(=O)Nc2ccccc2)[C@H]1OC(=O)Nc1ccccc1", "yes"),
]

====

Target: Torsin-1A (Homo sapiens)
Assay: TOR1A wild-type binding on microarray – cell lysate, small-molecule microarray, lysate, 635/667 nm, primary screen (AID 1149)
Settings: COS7 hTOR1A-WT lysate, 635 nm fluorescence, higher = more signal
Please mark y if the recorded composite z-score is equal to or greater than 0.3, and n if it falls below.

# compound, label-value
measured = [
    ("CCCc1cc2c(n1CCc1ccc(Cl)cc1)C(C)C1CN(C(=O)c3ccccc3)C(C)(C(=O)OC)C21 (configuration not stated)", "n"),
    ("COC(=O)[C@@]1(Cc2ccccc2)[C@H]2c3cc(C(=O)N4CCCC4)n(Cc4ccc(OC)c(OC)c4)c3C[C@H]2CN1C(=O)c1ccccc1", "n"),
    ("COCCCNC(=O)[C@@]1(CCC(=O)OC(C)(C)C)COC(c2ccc(OCCCO)cc2)=N1", "y"),
    ("COc1cc(OC)c(C(O)C2C=CC3C(=O)N(c4ccccc4)C(=O)C3N2Nc2ccc(C(C)C)cc2)cc1Br (configuration not stated)", "n"),
    ("NC(=O)NCC#Cc1ccc2c(c1)[C@]1(C(=O)N2)[C@H](c2ccc(OCCO)cc2)N2[C@H](c3ccccc3)[C@H](c3ccccc3)OC(=O)[C@H]2[C@@H]1C(=O)O", "n"),
    ("COc1ccc([Si](C)(C)[C@@H]2[C@@H](CC(=O)N3CCC[C@H]3CO)O[C@]3(C(=O)N(Cc4cccc(N5CCCCC5=O)c4)c4ccccc43)[C@H]2C)cc1", "y"),
    ("COc1ccc([Si](C)(C)[C@H]2[C@H](CC(=O)N3Cc4ccccc4C[C@H]3CO)O[C@@]3(C(=O)N(C)c4ccccc43)[C@@H]2C)cc1", "y"),
]

====

Test: inhibition of PAO1 biofilm formation – strain PAO1, LB-PBS medium, absorbance 600 nm, primary screen (AID 1176); note: test concentration not given here
Conditions: P. aeruginosa PAO1 growth/biofilm, A600, 12 h; higher = more signal

# smiles-str, z-score
measured = [
    ("NC(=O)NCC#Cc1ccc2c(c1)[C@]1(C(=O)N2)[C@H](c2ccc(OCCO)cc2)N2[C@H](c3ccccc3)[C@H](c3ccccc3)OC(=O)[C@H]2[C@@H]1C(=O)NC[C@H](O)c1ccccc1", 0.489),
    ("COCCOC(=O)N1C(=O)[C@@]2(c3cc(C#CCC(C(=O)OC)C(=O)OC)ccc31)[C@H](c1ccc(O)cc1)N1[C@H](c3ccccc3)[C@H](c3ccccc3)OC(=O)[C@H]1[C@@H]2C(=O)Nc1nc2ccccc2s1", 0.321),
    ("COc1ccc([Si](C)(C)[C@H]2[C@H](CCO)O[C@@]3(C(=O)N(Cc4cccc(N5C(=O)c6ccccc6Oc6ccccc65)c4)c4ccccc43)[C@@H]2C)cc1", 1.01),
]

====

Examples of compounds with documented z-score follow.
Assay: Pseudomonas biofilm growth suppression – PAO1 strain, BacTiter-Glo luminescence, LB-PBS, primary screen (AID 1144)
Conditions: P. aeruginosa PAO1 biofilm, 12 h, higher = more signal
Calls of active or inactive are those of the source. The rule behind the calls is not given here.

# compound, z-score
records = [
    ("OCCCC1=CC(c2ccc(CN3CCCC3)cc2)N(Cc2cccc(OC(F)(F)F)c2)CC1 (centres undefined)", "0.697 (inactive)"),
    ("CCOC(=O)C[C@H]1[C@H](OC(=O)c2ccccc2-c2ccccc2)[C@@H](NC(=O)C2CCCCC2)c2cc(OCCCO)ccc2N1C(=O)c1ccc2ccccc2n1", "0.507 (inactive)"),
    ("C[N+](C)(C)CCCC[C@@H]1NC(=O)[C@@H]2C[C@H](C(=O)NCc3ccc(F)cc3)[C@H](c3ccc(O)cc3)N2C1=O", "-1.22 (inactive)"),
    ("COc1cc(CO)cc(I)c1O[C@H]1C=C(C(=O)NCCO)C[C@@H]2O[C@H]12", "-0.583 (inactive)"),
    ("[N-]=[N+]=Nc1ccccc1C[C@]1(C(=O)N2CCOCC2)N=C(c2ccc(OCCCO)cc2)O[C@H]1c1ccccc1N=[N+]=[N-]", "-0.781 (inactive)"),
    ("O=C1C=C(c2ccccc2)C(=O)C2=C1CC([C@H]1Oc3ccccc3S(=O)(=O)N3CCC[C@@H]13)=CC2", "0.497 (inactive)"),
    ("COC(=O)[C@@]1(Cc2ccc(OC)cc2)[C@H]2c3cc(C(=O)N4CCCC4)n(Cc4ccc(C(F)(F)F)nc4)c3C[C@H]2CN1C(=O)c1ccccc1", "0.361 (inactive)"),
    ("CC(C)NC(=O)[C@@H]1c2ccccc2C(=O)N(Cc2ccc(OC(F)(F)F)cc2)[C@H]1c1ccc(CO)cc1", "-0.294 (inactive)"),
    ("COC(=O)[C@@]1(Cc2ccccc2)[C@H]2c3cc(C(=O)N4CCCC4)n(Cc4ccc(OC)c(OC)c4)c3C[C@H]2CN1C(=O)c1ccccc1", "0.388 (inactive)"),
    ("COC(=O)[C@@]1(Cc2ccccc2)[C@H]2c3cc(C(=O)N(C)C)n(Cc4ccc(C(F)(F)F)nc4)c3C[C@H]2CN1C(=O)c1ccccc1", "-0.0691 (inactive)"),
    ("C=CCOC(=O)[C@H]1[C@@H]2C(=O)O[C@@H](c3ccccc3)[C@@H](c3ccccc3)N2[C@@H](c2ccc(OCCOC(=O)[C@@H]3C[C@@H]4C(=O)N[C@@H](CCCC[N+](C)(C)C)C(=O)N4[C@@H]3c3ccc(O)cc3)cc2)[C@]12C(=O)Nc1ccc(I)cc12", "0.201 (inactive)"),
    ("CCOc1cc(C(O)C2C=CC3C(=O)N(c4ccccc4)C(=O)C3N2Nc2ccccc2F)ccc1O (centres undefined)", "-0.545 (inactive)"),
    ("C=CC[C@@]12N=C(c3ccc(OCCCO)cc3)O[C@@H]1c1ccccc1N(CCC)C2=O", "-1.29 (inactive)"),
    ("CCOC(=O)C1=CC[C@@H](c2ccccc2)N(S(=O)(=O)c2ccc(C)cc2)[C@H]1c1ccccc1I", "0.366 (inactive)"),
]

====

Examples of compounds with documented z-score follow.
Test: compound effects on lung adenocarcinoma cell viability – A549, calcein-AM fluorescence, 48 h, basal, profiling panel (AID 1162); note: test concentration not given here
Conditions: higher = more signal

# smiles-str, z-score
records = [
    ("COC(=O)[C@@]1(Cc2ccc(F)cc2)[C@H]2c3cc(C(=O)N(C)C)n(C)c3C[C@H]2CN1C(=O)c1ccccc1", 0.888),
    ("CCCC[C@H]1C[C@@H]1[C@@H]1N(C(C)=O)[C@H](c2cccc(OC)c2)CC12CC2", -1.54),
    ("NCCCCCCNC(=O)[C@@H]1C[C@@H]2C(=O)N3CCC[C@H]3C(=O)N2[C@@H]1c1cccc(OCCO)c1", 0.108),
    ("[N-]=[N+]=Nc1ccccc1[C@@H]1OC(c2ccc(OCCCO)cc2)=N[C@]1(Cc1ccccc1)C(=O)NCCN1CCOCC1", -0.975),
]

====

Test system: glycogen synthase kinase-3 (GSK3A per assay name; protocol says GSK3B)
Test: compounds binding glycogen synthase kinase-3 – biochemical, small-molecule microarray, 635 nm fluorescence, GSK3A, primary screen (AID 1103); note: the record names both GSK3A and GSK3B
Conditions: fluorescence 635 nm, higher = more signal
Please mark t if the recorded composite z-score is equal to or greater than 0.5, and f if it falls below.

# compound, label-value
records = [
    ("O=C1C2C=CC(C(O)c3c(F)cccc3Cl)N(Nc3ccc([N+](=O)[O-])cc3)C2C(=O)N1c1ccccc1 (configuration not stated)", "t"),
    ("C=C(COC)/C(=C/C[C@@H](OC(C)=O)c1ccccc1OCCO)c1cnc2ccccc2c1", "f"),
    ("COC(=O)[C@@]1(Cc2ccccc2)[C@H]2c3cc(C(=O)N(C)C)n(CCSC(=N)N)c3C[C@H]2CN1C(=O)c1ccccc1", "f"),
    ("O=C1[C@H]2C=C(I)[C@H](C[C@@H]2c2ccccc2)[C@@]12CO2", "f"),
    ("N#Cc1ccc(-c2cccc(=O)o2)cc1", "f"),
    ("COC(=O)[C@@]1(Cc2ccc(OC)cc2)[C@H]2c3cc(C(=O)N(C)C)[nH]c3C[C@H]2CN1C(=O)c1ccccc1", "f"),
    ("COCCCNC(=O)[C@@]1(CCS(=O)(=O)c2ccccc2)COC(c2ccc(OCCCO)cc2)=N1", "t"),
    ("CC(C)C(O)C1C=CC2C(=O)NC(=O)C2N1Nc1ccccn1 (configuration not stated)", "f"),
    ("C=CCOC(=O)[C@H]1[C@@H]2C(=O)O[C@@H](c3ccccc3)[C@@H](c3ccccc3)N2[C@@H](c2ccc(OCCOC(=O)[C@H]3C[C@H]4C(=O)N[C@@H](CC(C)C)C(=O)N4[C@H]3c3ccc(O)cc3)cc2)[C@]12C(=O)Nc1ccccc12", "t"),
    ("CCOc1cc(C(O)C2C=CC3C(=O)N(c4ccccc4)C(=O)C3N2Nc2ccccc2F)ccc1O (configuration not stated)", "f"),
    ("CC(C)=CCCC(C)=CC(O)C1C=CC2C(=O)NC(=O)C2N1Nc1ccccn1 (configuration not stated)", "t"),
    ("COCC(=C=CC[C@H](O)c1ccccc1OCCO)C[C@H](O)COCc1ccccc1", "f"),
    ("CCOC(=O)c1cn(C[C@H](Cc2ccccc2)NC(=O)N[C@H](CO)CCc2oc(C(C)=O)c(C(=O)OC)c2C(=O)OC)nn1", "t"),
    ("CC(C)C[C@H]1NC(=O)C([C@@H](C)OCc2ccccc2)NC(=O)[C@@]23C(=O)N[C@@H](Cc4ccccc4)C2[C@H](C)[C@@]2(C)O[C@H]2C3/C=C/C/C=C\\CNC1=O (some centres not stated)", "t"),
    ("CN(C)CCCC[C@@H]1NC(=O)[C@H]2C[C@@H](C(=O)O)[C@@H](c3ccc(O)cc3)N2C1=O", "t"),
    ("C[C@@H]1ON(c2ccccc2)[C@H](c2ccccc2)[C@H]1C(=O)O", "f"),
]
